Target: muscarinic M2 receptor (Cavia porcellus)
Construct: left atria were excised to prepare tissue specimens; from tissue; host or cells: isolated guinea pig left atrium (male Hartley)
Sequence (H0VRN8 1-466): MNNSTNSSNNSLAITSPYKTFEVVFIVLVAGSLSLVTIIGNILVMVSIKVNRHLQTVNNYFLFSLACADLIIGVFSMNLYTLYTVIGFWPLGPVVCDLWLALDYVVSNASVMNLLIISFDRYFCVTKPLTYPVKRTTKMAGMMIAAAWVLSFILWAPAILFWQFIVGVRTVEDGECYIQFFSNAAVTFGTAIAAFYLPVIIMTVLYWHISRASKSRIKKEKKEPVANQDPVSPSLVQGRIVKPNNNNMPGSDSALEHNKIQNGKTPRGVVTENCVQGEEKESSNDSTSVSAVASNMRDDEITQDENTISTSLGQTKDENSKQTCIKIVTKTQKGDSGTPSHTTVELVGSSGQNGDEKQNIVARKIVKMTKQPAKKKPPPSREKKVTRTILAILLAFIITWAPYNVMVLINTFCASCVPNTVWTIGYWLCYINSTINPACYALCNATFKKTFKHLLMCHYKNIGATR
Assay: Muscarinic M2 antagonistic action in isolated guinea pig left atrium (carbachol-induced relaxation, Schild method)
Format: cell-based
Details: isolated guinea pig left atrium, compound applied 30 minutes before carbachol
Procedure: Muscarinic M2 Antagonistic Action in Isolated Guinea Pig Left Atrium […] Each tissue specimen was kept warm at 37° C., suspended with a resting tension of 0.5 g in a 5-mL Magnus bath filled with a Krebs carbonate buffer bubbled with 95% O2/5% CO2. Then, contraction evoked by field electrical stimulation (4 Hz, 2 msec, 1.5×threshold potential) was measured. […]
What pA2 Left atrium M2 was measured for each of the following?
Answers are plain numbers.

Recorded pA2 Left atrium M2, per entry:
Give its pA2 Left atrium M2 value. Item: Cc1n(Cc2ccc(F)cc2)cc[n+]1[C@H]1CC[C@@H](C(C(N)=O)(c2ccccc2)c2ccccc2)C1.[Br-] (relative stereo)
8.5

Give its pA2 Left atrium M2 value. Item: "C=C(CC)[n+]1ccn([C@H]2CC[C@@H](C(C(N)=O)(c3ccccc3)c3ccccc3)C2)c1C.[Br-]"
7.9

Give its pA2 Left atrium M2 value. Item: Cc1n(CC2CO2)cc[n+]1[C@H]1CC[C@@H](C(C(N)=O)(c2ccccc2)c2ccccc2)C1.[Br-] (relative stereo)
7.7

Hello, I would appreciate it if you could give pA2 Left atrium M2 for each entry below.
1. Cc1n([C@H]2CC[C@@H](C(C(N)=O)(c3ccccc3)c3ccccc3)C2)cc[n+]1CCO.[Br-]
2. Cc1n([C@H]2CC[C@@H](C(C(N)=O)(c3ccccc3)c3ccccc3)C2)cc[n+]1CC[C@H]1CO1.[Br-] (relative stereo)

1: 6.3; 2: 7.7

----------
Test system: Bronchoconstriction in Guinea Pigs (induced with acetylcholine)
Experiment: Effect on bronchoconstriction in guinea pigs (via inhalation administration), Konzett method
Format: in vivo
Conditions: Cavia porcellus, iv; guinea pig, intratracheal administration 10 μL g/head, 24 hours after administration, acetylcholine 4 μg/kg i.v., versus control group; read-out: Percent of inhibition of bronchoconstriction (%)
What inhibition in vivo at 0.01 mg was measured for each of the following?
One number for each entry, in %.

Recorded inhibition in vivo at 0.01 mg, per entry:
Give its inhibition in vivo at 0.01 mg value. Item: CC(=O)C[n+]1ccn([C@@H]2CC[C@H](C(C(N)=O)(c3ccccc3)c3ccccc3)C2)c1C [Example 90]
100

Give its inhibition in vivo at 0.01 mg value. Item: CC1=[N+](C)CCN1[C@H]1CC[C@@H](C(C(N)=O)(c2ccccc2)c2ccccc2)C1 (relative stereo) [Example 56]
100

Give its inhibition in vivo at 0.01 mg value. Item: Cc1nccn1[C@@H]1CC[C@H](C(C(N)=O)(c2ccccc2)c2ccccc2)C1 (relative stereo) [Reference Example 5, reference compound]
0

Give its inhibition in vivo at 0.01 mg value. Item: Cc1n([C@H]2CC[C@@H](C(C(N)=O)(c3ccccc3)c3ccccc3)C2)cc[n+]1CC1CC1 (relative stereo) [Example 30]
80

Give its inhibition in vivo at 0.01 mg value. Item: COCC[n+]1ccn([C@H]2CC[C@@H](C(C(N)=O)(c3ccccc3)c3ccccc3)C2)c1C (relative stereo) [Example 26]
70

Give its inhibition in vivo at 0.01 mg value. Item: Cc1n([C@@H]2CC[C@H](C(C(N)=O)(c3ccccc3)c3ccccc3)C2)cc[n+]1Cc1ccccc1 [Example 91]
100

Hello, I would appreciate it if you could give inhibition in vivo at 0.01 mg for each entry below.
1. Cc1n([C@H]2CC[C@@H](C(C(N)=O)(c3ccccc3)c3ccccc3)C2)cc[n+]1C(F)F (relative stereo) [Example 37]
2. CC1=NCCN1[C@@H]1CC[C@H](C(C(N)=O)(c2ccccc2)c2ccccc2)C1 (relative stereo) [Reference Example 13, reference compound]
3. CC1=[N+](C)CCN1[C@@H]1CC[C@H](C(C(N)=O)(c2ccccc2)c2ccccc2)C1 [Example 60]
4. Cc1n([C@H]2CC[C@@H](C(C(N)=O)(c3ccccc3)c3ccccc3)C2)cc[n+]1Cc1ccccc1 [Example 83]

[80, 20, 90, 100]
